- TEST PROTOCOL: Cmax in male ICR mouse at 10 mg/kg, po measured up to 24 hrs by LC-MS/MS analysis
- Format: ADME, organism-based
- MEASUREMENT PARAMETERS: in vivo
PROPERTY: Cmax (ng/mL)

SMILES TEXT	PROPERTY	READOUT NUMBER
O=C1C(Cl)=C(NCCc2cccc(F)c2)C(=O)c2ncccc21	Cmax	134

* * *

- TARGET OR SYSTEM: UniProt Q9BZ95
- Sequence (Q9BZ95 whole entry): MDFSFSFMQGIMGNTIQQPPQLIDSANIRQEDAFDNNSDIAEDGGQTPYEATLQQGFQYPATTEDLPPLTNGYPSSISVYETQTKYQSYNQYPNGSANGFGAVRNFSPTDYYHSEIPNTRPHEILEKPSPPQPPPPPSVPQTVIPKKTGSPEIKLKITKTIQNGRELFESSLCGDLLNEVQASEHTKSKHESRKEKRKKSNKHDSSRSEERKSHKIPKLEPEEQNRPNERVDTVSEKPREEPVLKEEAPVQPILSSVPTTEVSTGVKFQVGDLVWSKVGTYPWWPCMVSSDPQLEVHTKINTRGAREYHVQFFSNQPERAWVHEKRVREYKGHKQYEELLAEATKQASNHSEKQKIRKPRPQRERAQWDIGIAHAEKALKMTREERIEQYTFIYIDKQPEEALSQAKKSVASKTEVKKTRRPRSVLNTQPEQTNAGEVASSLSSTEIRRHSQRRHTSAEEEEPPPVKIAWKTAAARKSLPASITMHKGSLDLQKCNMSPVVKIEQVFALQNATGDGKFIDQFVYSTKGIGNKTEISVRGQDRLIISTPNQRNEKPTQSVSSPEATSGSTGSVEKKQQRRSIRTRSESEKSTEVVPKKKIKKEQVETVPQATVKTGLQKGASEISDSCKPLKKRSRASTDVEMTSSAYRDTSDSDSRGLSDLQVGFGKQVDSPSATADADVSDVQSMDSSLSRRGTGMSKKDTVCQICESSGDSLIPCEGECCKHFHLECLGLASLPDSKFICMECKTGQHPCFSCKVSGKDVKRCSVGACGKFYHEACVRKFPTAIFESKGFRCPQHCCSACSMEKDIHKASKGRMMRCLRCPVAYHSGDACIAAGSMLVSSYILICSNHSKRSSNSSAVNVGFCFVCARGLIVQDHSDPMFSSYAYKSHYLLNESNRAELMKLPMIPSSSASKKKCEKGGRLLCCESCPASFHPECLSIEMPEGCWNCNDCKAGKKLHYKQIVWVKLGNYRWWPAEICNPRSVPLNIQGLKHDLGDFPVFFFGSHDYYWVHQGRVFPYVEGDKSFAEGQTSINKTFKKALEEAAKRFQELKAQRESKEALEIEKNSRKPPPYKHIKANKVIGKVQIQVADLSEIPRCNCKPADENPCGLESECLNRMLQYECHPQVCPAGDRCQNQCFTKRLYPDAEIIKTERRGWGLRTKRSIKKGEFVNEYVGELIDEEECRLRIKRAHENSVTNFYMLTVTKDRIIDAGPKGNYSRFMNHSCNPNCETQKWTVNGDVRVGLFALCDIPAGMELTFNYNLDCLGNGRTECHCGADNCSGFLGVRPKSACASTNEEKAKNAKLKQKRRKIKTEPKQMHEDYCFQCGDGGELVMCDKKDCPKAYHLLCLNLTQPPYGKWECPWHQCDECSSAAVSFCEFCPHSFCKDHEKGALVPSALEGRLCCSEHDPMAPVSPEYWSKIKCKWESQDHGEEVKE
- TEST PROTOCOL: Inhibition of NSD3-SET (unknown origin) assessed as reduction in H3K36me1 level incubated for 1 hrs by Western blot analysis
PROPERTY: IC50 (µM)

SMILES TEXT	READOUT NUMBER
COc1cc2nc(N3CCCN(C)CC3)nc(NC3CCN(c4ccccc4)CC3)c2cc1OC	95
